# Test system: colon cancer cell line HT29
# Assay text: Growth profile / viability of HT29 colon cancer cells, XTT test
# Format: cell-based
# Measurement conditions: Homo sapiens, HT-29, 96 h, Control DMSO = 100%, second HT29 column, read-out: percentage of viable cells, HT29
Assign labels as follows, please: t for viability at 5 µM below 50%; f for viability at 5 µM equal to or exceeding 50%.

# input Criterion: viability at 5 µM strictly below 50%. Is it met by CN1CCN(C(=O)C2CCN(c3nn4cc(-c5ccc(N(C)CCO)cc5)nc4s3)CC2)CC1 [Compound Z522-0177] ?
# output f

# input State whether 50% exceeds viability at 5 µM recorded for Cc1ccc(C)n1CCN1CCN(C(=O)C2CCN(c3nn4cc(-c5ccc(Cl)cc5)nc4s3)CC2)CC1 [Compound Z522-0209] .
# output t

# input Say whether its viability at 5 µM is strictly beneath 50%. Entry: O=C(C1CCN(c2nn3cc(-c4ccc(Cl)cc4)nc3s2)CC1)N1CCCN(c2ncccn2)CC1 [Compound Z522-0219]
# output f

# input Here's an entry: Cc1c(-c2ccc(N(C)CCO)cc2)nc2sc(N3CCC(C(=O)N4CCN(C)CC4)CC3)nn12 [Compound Z522-0197] . Is its viability at 5 µM below 50%?
# output f

# input Field: below-cutoff. Rule: recorded viability at 5 µM strictly less than 50%. Subject: Cc1c(-c2ccc(N(C)C)cc2)nc2sc(N3CCC(C(=O)N4CCN(C)CC4)CC3)nn12 [Compound Z522-0179]
# output f

# input Hi there! Is viability at 5 µM for CN1CCN(C(=O)C2CCN(c3nn4cc(-c5ccc(N6CCN(C)CC6)cc5)nc4s3)CC2)CC1 [Compound Z522-0160] below 50%, do you know?
# output f

# input Bench note: check whether Cc1c(-c2ccc(N3CCOCC3)cc2)nc2sc(N3CCC(C(=O)N4CCN(C)CC4)CC3)nn12 [Compound Z522-0196] shows viability at 5 µM below 50%
# output f

# input Input CN1CCC(N(C)C(=O)C2CCN(c3nn4cc(-c5ccc(Cl)cc5)nc4s3)CC2)CC1 [Compound Z522-0202] ; condition: viability at 5 µM strictly below 50%. Does it hold?
# output t

---

# Assay text: Viability of FS non malignant fibroblastic cells, XTT test
# Format: cell-based
# Measurement conditions: FS cells (non-malignant fibroblastic cell line), Control DMSO = 100%, first FS column, read-out: percentage of viable cells, FS
Would you kindly list viability at 96 h, 5 µM for each of these molecules?
Give bare numbers, in %.

Quick request: viability at 96 h, 5 µM for each listed item, please.
1. CC(C)c1ccc(-c2cn3nc(N4CCC(C(=O)N5CCCN(c6ncccn6)CC5)CC4)sc3n2)cc1
2. CC(C)c1ccc(-c2cn3nc(N4CCC(C(=O)N5CCN(c6ncccn6)CC5)CC4)sc3n2)cc1

# output
89
89

Hey, quick one: what's viability at 96 h, 5 µM for each of these?
1. Cc1ccc(C)n1CCN1CCN(C(=O)C2CCN(c3nn4cc(-c5ccc(Cl)cc5)nc4s3)CC2)CC1
2. Cc1c(-c2ccc(N(C)C)cc2)nc2sc(N3CCC(C(=O)N4CCN(C)CC4)CC3)nn12
3. CN(CCc1ccccn1)C(=O)C1CCN(c2nn3cc(-c4ccc(Cl)cc4)nc3s2)CC1
4. CN(CCc1ccncc1)C(=O)C1CCN(c2nn3cc(-c4ccc(Cl)cc4)nc3s2)CC1

# output
1: 89; 2: 91; 3: 90; 4: 88

For every item in the list below, what is its measured viability at 96 h, 5 µM?
1. CN(C)CCNC(=O)CN1CCN(C(=O)C2CCN(c3nn4cc(-c5ccc(Cl)cc5)nc4s3)CC2)CC1
2. CC(C)c1ccc(-c2cn3nc(N4CCC(C(=O)N(C)CC(=O)N5CCN(C)CC5)CC4)sc3n2)cc1

# output
82
80
